Format: in vivo, human
protocolConditions: read-out: Cmax, Geometric Mean (CV %); CBJ; single oral 5 mg midazolam
attributeMeasured: Cmax (nM)
Numbers only, in nM.

GET /values?readout=Cmax&item= OCc1ncc2n1-c1ccc(Cl)cc1C(c1ccccc1F)=NC2 [1'-Hydroxymidazolam, 1'-hydroxymidazolam] 10

====

assayMethodText: Midazolam absorptive permeability in Caco-2 cell monolayers
Format: in vitro ADME, human
protocolConditions: human, Caco-2, pH 7.4, Papp, apical to basolateral, high glucose (50 g/L, pH 7.4); midazolam 3 μM
attributeMeasured: Papp A→B at 3 μM (×10⁻⁶ cm/s)
Give bare numbers, in ×10⁻⁶ cm/s.

GET /values?readout=Papp A→B at 3 μM&item= Cc1ncc2n1-c1ccc(Cl)cc1C(c1ccccc1F)=NC2 18.9

====

assayMethodText: Midazolam absorptive permeability in Caco-2 cell monolayers
Type: in vitro ADME, human
protocolConditions: human, Caco-2, Papp, apical to basolateral, acidic pH (5.5); midazolam 3 μM
attributeMeasured: Papp A→B at 3 μM

GET /values?readout=Papp A→B at 3 μM&item= Cc1ncc2n1-c1ccc(Cl)cc1C(c1ccccc1F)=NC2 21.9 ×10⁻⁶ cm/s

====

assayMethodText: Midazolam absorptive permeability in Caco-2 cell monolayers
Type: in vitro ADME, human
protocolConditions: human, Caco-2, pH 7.4, Papp, apical to basolateral, control (plain incubation medium, pH 7.4); midazolam 3 μM
attributeMeasured: Papp A→B at 3 μM (×10⁻⁶ cm/s)
Numbers only, in ×10⁻⁶ cm/s.

GET /values?readout=Papp A→B at 3 μM&item= Cc1ncc2n1-c1ccc(Cl)cc1C(c1ccccc1F)=NC2 19.4

====

Type: in vivo, human
protocolConditions: human, plasma, po, 5 mg
attributeMeasured: half-life (min)
Numbers only, in min.

GET /values?readout=half-life&item= Cc1ncc2n1-c1ccc(Cl)cc1C(c1ccccc1F)=NC2 174

====

Assay type: in vivo, human
protocolConditions: read-out: Cmax, Geometric Mean (CV %); water; single oral 5 mg midazolam
attributeMeasured: Cmax

GET /values?readout=Cmax&item= OCc1ncc2n1-c1ccc(Cl)cc1C(c1ccccc1F)=NC2 [1'-Hydroxymidazolam, 1'-hydroxymidazolam] 33 nM

Reference source for all entries: paper PMC2650736
